// provenance: patent US20060189528A1

Please respond with reported RANKL fold change cf wt for every item in the list.
- test-system: T1, RANKL (human, UniProt O14788 140-317, limits assumed)
- T1 construct: also called Rank ligand
- T1 sequence (looked up): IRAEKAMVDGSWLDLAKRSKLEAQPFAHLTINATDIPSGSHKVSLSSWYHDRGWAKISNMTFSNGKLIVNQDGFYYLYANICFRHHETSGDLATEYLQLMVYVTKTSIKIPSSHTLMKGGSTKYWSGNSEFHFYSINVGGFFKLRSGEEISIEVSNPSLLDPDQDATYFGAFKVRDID
- procedure-details: ELISA on coated RANKL, Fc-linked dimers; EC50 ratio to OPG(22-194).Fc wt; increase in binding (lower EC50)
- Experimental: Purified mammalian-expressed OVP proteins are tested for binding to RANKL and TRAIL by ELISA. Wells are coated with RANKL at 5 μg/mL or TRAIL at 10 μg/mL in PBS O/N at 4° C., rinsed with PBS, blocked with 0.5% casein in PBS at room temp for 2 h, then rinsed again with PBS. […] TMB is used as enzyme substrate and then binding signal is measured at A_{450 nm}.
Numeric only. Scale: fold

Challenge: Could you share which RANKL fold change cf wt value was measured for OVP I115T, K51R, R111H (Fc fusion, Tested as C-terminal Fc-linked dimer with FLAG tag, from HEK 293 EBNA cells; signal peptide 1-21 processed; not shown: human Fc domain of vector pAPEX-3.Fc; C-terminal FLAG tag) ETFPPKYLHYDEETSHQLLCDKCPPGTYLRQHCTAKWKTVCAPCPDHYYTDSWHTSDECLYCSPVCKELQYVKQECNRTHNRVCECKEGHYLETEFCLKHRSCPPGFGVVQAGTPERNTVCKRCPDGFFSNETSSKAPCRKHTNCSVFGLLLTQKGNATHDNICSGNSESTQK ?
Response given: 1.5

Challenge: Recorded RANKL fold change cf wt of OVP I115T, K51R, S167G (Fc fusion, Tested as C-terminal Fc-linked dimer with FLAG tag, from HEK 293 EBNA cells; signal peptide 1-21 processed; not shown: human Fc domain of vector pAPEX-3.Fc; C-terminal FLAG tag) ETFPPKYLHYDEETSHQLLCDKCPPGTYLRQHCTAKWKTVCAPCPDHYYTDSWHTSDECLYCSPVCKELQYVKQECNRTHNRVCECKEGRYLETEFCLKHRSCPPGFGVVQAGTPERNTVCKRCPDGFFSNETSSKAPCRKHTNCGVFGLLLTQKGNATHDNICSGNSESTQK , please.
Response given: 1.5

Challenge: Look up RANKL fold change cf wt: OVP I115M, R122S (Fc fusion, Tested as C-terminal Fc-linked dimer with FLAG tag, from HEK 293 EBNA cells; signal peptide 1-21 processed; also called I115M plus: R122S; not shown: human Fc domain of vector pAPEX-3.Fc; C-terminal FLAG tag) ETFPPKYLHYDEETSHQLLCDKCPPGTYLKQHCTAKWKTVCAPCPDHYYTDSWHTSDECLYCSPVCKELQYVKQECNRTHNRVCECKEGRYLEMEFCLKHSSCPPGFGVVQAGTPERNTVCKRCPDGFFSNETSSKAPCRKHTNCSVFGLLLTQKGNATHDNICSGNSESTQK
Response given: 1.5

Challenge: Can you share its RANKL fold change cf wt? I mean this binder: OVP I115V (Fc fusion, Tested as C-terminal Fc-linked dimer with FLAG tag, from HEK 293 EBNA cells; signal peptide 1-21 processed; not shown: human Fc domain of vector pAPEX-3.Fc; C-terminal FLAG tag) ETFPPKYLHYDEETSHQLLCDKCPPGTYLKQHCTAKWKTVCAPCPDHYYTDSWHTSDECLYCSPVCKELQYVKQECNRTHNRVCECKEGRYLEVEFCLKHRSCPPGFGVVQAGTPERNTVCKRCPDGFFSNETSSKAPCRKHTNCSVFGLLLTQKGNATHDNICSGNSESTQK
Response given: 1.5

Challenge: Given OVP I115A (Fc fusion, Tested as C-terminal Fc-linked dimer with FLAG tag, from HEK 293 EBNA cells; signal peptide 1-21 processed; not shown: human Fc domain of vector pAPEX-3.Fc; C-terminal FLAG tag) ETFPPKYLHYDEETSHQLLCDKCPPGTYLKQHCTAKWKTVCAPCPDHYYTDSWHTSDECLYCSPVCKELQYVKQECNRTHNRVCECKEGRYLEAEFCLKHRSCPPGFGVVQAGTPERNTVCKRCPDGFFSNETSSKAPCRKHTNCSVFGLLLTQKGNATHDNICSGNSESTQK , state its recorded RANKL fold change cf wt.
Response given: 2.25

Challenge: I'd like to know its RANKL fold change cf wt. The binder in question is OVP I115M, R122Q (Fc fusion, Tested as C-terminal Fc-linked dimer with FLAG tag, from HEK 293 EBNA cells; signal peptide 1-21 processed; also called I115M plus: R122Q; not shown: human Fc domain of vector pAPEX-3.Fc; C-terminal FLAG tag) ETFPPKYLHYDEETSHQLLCDKCPPGTYLKQHCTAKWKTVCAPCPDHYYTDSWHTSDECLYCSPVCKELQYVKQECNRTHNRVCECKEGRYLEMEFCLKHQSCPPGFGVVQAGTPERNTVCKRCPDGFFSNETSSKAPCRKHTNCSVFGLLLTQKGNATHDNICSGNSESTQK
Response given: 2.5

Challenge: I have this binder here, OVP I115Y (Fc fusion, Tested as C-terminal Fc-linked dimer with FLAG tag, from HEK 293 EBNA cells; signal peptide 1-21 processed; not shown: human Fc domain of vector pAPEX-3.Fc; C-terminal FLAG tag) ETFPPKYLHYDEETSHQLLCDKCPPGTYLKQHCTAKWKTVCAPCPDHYYTDSWHTSDECLYCSPVCKELQYVKQECNRTHNRVCECKEGRYLEYEFCLKHRSCPPGFGVVQAGTPERNTVCKRCPDGFFSNETSSKAPCRKHTNCSVFGLLLTQKGNATHDNICSGNSESTQK , and I need its recorded RANKL fold change cf wt.
Response given: 1.1
